Values were extracted from paper PMC3962784.

A collection of compounds and their measured Calpain1 ki/Ki
Biological target: full length Cal1 (full length porcine calpain) (Sus scrofa, UniProt P35750)
Sequence (P35750 1-714): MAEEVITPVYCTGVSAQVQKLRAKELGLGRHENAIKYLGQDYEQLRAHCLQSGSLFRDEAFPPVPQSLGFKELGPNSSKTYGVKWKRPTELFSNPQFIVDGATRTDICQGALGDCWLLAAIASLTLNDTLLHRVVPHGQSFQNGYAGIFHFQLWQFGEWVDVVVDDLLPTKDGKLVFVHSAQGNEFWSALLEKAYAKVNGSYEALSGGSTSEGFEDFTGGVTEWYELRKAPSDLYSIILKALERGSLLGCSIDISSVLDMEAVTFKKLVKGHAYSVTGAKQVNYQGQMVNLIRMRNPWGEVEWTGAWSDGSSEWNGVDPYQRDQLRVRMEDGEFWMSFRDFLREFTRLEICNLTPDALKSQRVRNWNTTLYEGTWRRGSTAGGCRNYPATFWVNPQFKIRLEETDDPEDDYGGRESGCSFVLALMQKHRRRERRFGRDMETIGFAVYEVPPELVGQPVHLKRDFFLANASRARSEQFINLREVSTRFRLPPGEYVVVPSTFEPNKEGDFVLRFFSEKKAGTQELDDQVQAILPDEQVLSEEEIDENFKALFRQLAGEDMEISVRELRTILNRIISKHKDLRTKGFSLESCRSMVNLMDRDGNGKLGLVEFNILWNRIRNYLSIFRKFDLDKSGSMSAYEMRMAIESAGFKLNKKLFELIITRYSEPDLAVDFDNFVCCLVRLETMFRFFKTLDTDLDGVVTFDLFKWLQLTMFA
Sequence (P04574 1-266 partner): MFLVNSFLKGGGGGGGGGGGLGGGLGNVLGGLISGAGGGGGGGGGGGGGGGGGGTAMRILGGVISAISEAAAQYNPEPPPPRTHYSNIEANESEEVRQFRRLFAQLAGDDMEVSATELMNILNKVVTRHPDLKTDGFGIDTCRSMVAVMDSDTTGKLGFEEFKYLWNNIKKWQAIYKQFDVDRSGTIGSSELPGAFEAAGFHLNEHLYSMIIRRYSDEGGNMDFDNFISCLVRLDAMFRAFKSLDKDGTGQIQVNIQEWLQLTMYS
Experiment: Calpain inhibition kinetics, Suc-LLVY-AMC progress curves
Format: biochemical
Settings: full length Cal1; mean ± S.D. of triplicate

# Compound, Calpain1 ki/Ki, ×l0^−4 s^−1M^−1
data = [
    ("O=C(NCc1cn(-c2ccc(F)cc2)nn1)[C@H](Cc1cscn1)NC(=O)[C@H]1O[C@@H]1C(=O)O [compound 36]", 3.31),
    ("C#Cc1ccc(-c2csc(NC(=O)[C@H](Cc3cscn3)NC(=O)[C@H]3O[C@@H]3C(=O)O)n2)cc1 [compound 32]", 3.89),
    ("O=C(Nc1nc(-c2ccc(F)cc2)cs1)[C@H](Cc1cscn1)NC(=O)[C@H]1O[C@@H]1C(=O)O [compound 31]", 2.96),
    ("CC(C)C[C@H](NC(=O)[C@H]1O[C@@H]1C(=O)O)C(=O)NCCCCN=C(N)N [E-64, reference compound]", 3.02),
]

----------
Biological target: papain (Carica papaya)
Sequence (P00784 134-345): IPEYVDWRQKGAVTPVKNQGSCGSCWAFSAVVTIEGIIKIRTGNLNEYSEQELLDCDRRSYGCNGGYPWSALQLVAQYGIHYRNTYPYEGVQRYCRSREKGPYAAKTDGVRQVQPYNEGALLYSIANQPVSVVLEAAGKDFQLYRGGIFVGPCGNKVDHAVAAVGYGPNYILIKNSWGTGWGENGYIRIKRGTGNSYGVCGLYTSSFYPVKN
Assay: Papain inhibition kinetics, Suc-LLVY-AMC progress curves
Format: biochemical
Settings: mean ± S.D. of triplicate

# Compound, System Under Test, Papain ki/Ki
data = [
    ("O=C(Nc1nc(-c2ccc(F)cc2)cs1)[C@H](Cc1cscn1)NC(=O)[C@H]1O[C@@H]1C(=O)O [compound 31]", "papain (Carica papaya)", "279 ± 47 ×l0^−4s^−1M^−1"),
    ("CC(C)C[C@H](NC(=O)[C@H]1O[C@@H]1C(=O)O)C(=O)NCCCCN=C(N)N [E-64, reference compound]", "papain (Carica papaya)", "563 ± 52 ×l0^−4s^−1M^−1"),
    ("C#Cc1ccc(-c2csc(NC(=O)[C@H](Cc3cscn3)NC(=O)[C@H]3O[C@@H]3C(=O)O)n2)cc1 [compound 32]", "papain (Carica papaya)", "223 ± 2.4 ×l0^−4s^−1M^−1"),
    ("O=C(NCc1cn(-c2ccc(F)cc2)nn1)[C@H](Cc1cscn1)NC(=O)[C@H]1O[C@@H]1C(=O)O [compound 36]", "papain (Carica papaya)", "66.2 ±7.4 ×l0^−4s^−1M^−1"),
]
